Molecular target: P-gp (Homo sapiens)
Construct: host or cells: LLC-PK1-P-gp cells (passage no. 25–28)
Experiment: Transport of ginsenosides in P-gp-overexpressing LLC-PK1-P-gp cells
Format: in vitro ADME
Conditions: pig, LLC-PK1, LLC-PK1-P-gp cells, 20 μM; B to A Papp divided by A to B Papp; read-out: ER
ENDPOINT LABEL: efflux ratio at 20 μM

compound="CC(C)=CCCC(C)(OC1OC(CO)C(O)C(O)C1O)C1CCC2(C)C1C(O)CC1C3(C)CCC(O)C(C)(C)C3C(OC3OC(CO)C(O)C(O)C3O)CC12C (stereo not shown)" endpoint_label="efflux ratio at 20 μM" test_value=1
compound="CC(C)=CCCC(C)(O)C1CCC2(C)C1C(O)CC1C3(C)CCC(O)C(C)(C)C3C(OC3OC(CO)C(O)C(O)C3O)CC12C (stereo not shown)" endpoint_label="efflux ratio at 20 μM" test_value=0.9
compound="CC(C)=CCCC(C)(O)C1CCC2(C)C1C(O)CC1C3(C)CCC(O)C(C)(C)C3CCC12C (stereo not shown) [PPD, 20(s)-protopanaxadiol]" endpoint_label="efflux ratio at 20 μM" test_value=3.3
compound="CC(C)=CCC[C@](C)(O)[C@H]1CC[C@]2(C)[C@@H]1[C@H](O)C[C@@H]1[C@@]3(C)CC[C@H](O[C@@H]4O[C@H](CO)[C@@H](O)[C@H](O)[C@H]4O)C(C)(C)[C@@H]3CC[C@]12C [GRh2, ginsenoside Rh2]" endpoint_label="efflux ratio at 20 μM" test_value=18

====

System: LAB
Assay: In vitro RGE fermentation with LAB
Type: in vitro ADME
ENDPOINT LABEL: Relative abundance / metabolic activity following fermentation of RGE with LAB

compound="CC(C)=CCC[C@](C)(O[C@@H]1O[C@H](CO)[C@@H](O)[C@H](O)[C@H]1O)[C@H]1CC[C@]2(C)[C@@H]1[C@H](O)C[C@@H]1[C@@]3(C)CC[C@H](O)C(C)(C)[C@@H]3[C@@H](O[C@@H]3O[C@H](CO)[C@@H](O)[C@H](O)[C@H]3O[C@@H]3O[C@@H](C)[C@H](O)[C@@H](O)[C@H]3O)C[C@]12C [GRe]" test_value="marked decrease"
compound="CC(C)=CCC[C@](C)(O[C@@H]1O[C@H](CO)[C@@H](O)[C@H](O)[C@H]1O)[C@H]1CC[C@]2(C)[C@@H]1[C@H](O)C[C@@H]1[C@@]3(C)CC[C@H](O[C@@H]4O[C@H](CO)[C@@H](O)[C@H](O)[C@H]4O[C@@H]4O[C@H](CO)[C@@H](O)[C@H](O)[C@H]4O)C(C)(C)[C@@H]3CC[C@]12C [GRd]" test_value="marked decrease"
compound="CC(C)=CCC[C@](C)(O[C@@H]1O[C@H](CO[C@@H]2O[C@@H](CO)[C@H](O)[C@H]2O)[C@@H](O)[C@H](O)[C@H]1O)[C@H]1CC[C@]2(C)[C@@H]1[C@H](O)C[C@@H]1[C@@]3(C)CC[C@H](O[C@@H]4O[C@H](CO)[C@@H](O)[C@H](O)[C@H]4O[C@@H]4O[C@H](CO)[C@@H](O)[C@H](O)[C@H]4O)C(C)(C)[C@@H]3CC[C@]12C [GRc]" test_value="marked decrease"

====

Assay: Pharmacokinetic study of ginsenosides in healthy humans after repeated oral RGE with or without LAB
Type: in vivo, human
Conditions: male, human, plasma, po, 104.1 mg total ginsenosides/day, RGE group; human plasma, RGE oral 14 days; mean ± SD, n = 5; read-out: MRT
ENDPOINT LABEL: MRT (h)

compound="CC(C)=CCC[C@](C)(O[C@@H]1O[C@H](CO[C@@H]2O[C@H](CO)[C@@H](O)[C@H](O)[C@H]2O)[C@@H](O)[C@H](O)[C@H]1O)[C@H]1CC[C@]2(C)[C@@H]1[C@H](O)C[C@@H]1[C@@]3(C)CC[C@H](O[C@@H]4O[C@H](CO)[C@@H](O)[C@H](O)[C@H]4O[C@@H]4O[C@H](CO)[C@@H](O)[C@H](O)[C@H]4O)C(C)(C)[C@@H]3CC[C@]12C [GRb1, ginsenoside Rb1]" result_unit=h test_value=18.3

====

Experiment: Pharmacokinetic study of ginsenosides in healthy humans after repeated oral RGE with or without LAB
Format: in vivo, human
Conditions: male; RGE group; human plasma, RGE once daily oral 14 days (104.1 mg total ginsenosides/day); AUC 0 to 24 h; mean ± SD, n = 5; read-out: AUC
ENDPOINT LABEL: AUC (ng·h/mL)

compound="CC(C)=CCC[C@](C)(O[C@@H]1O[C@H](CO[C@@H]2O[C@H](CO)[C@@H](O)[C@H](O)[C@H]2O)[C@@H](O)[C@H](O)[C@H]1O)[C@H]1CC[C@]2(C)[C@@H]1[C@H](O)C[C@@H]1[C@@]3(C)CC[C@H](O[C@@H]4O[C@H](CO)[C@@H](O)[C@H](O)[C@H]4O[C@@H]4O[C@H](CO)[C@@H](O)[C@H](O)[C@H]4O)C(C)(C)[C@@H]3CC[C@]12C [GRb1, ginsenoside Rb1]" endpoint_label=AUC test_value=185

====

Experiment: Pharmacokinetic study of ginsenosides in healthy humans after repeated oral RGE with or without LAB
Type: in vivo, human
Settings: male, in vivo; RGE + LAB group; human plasma, RGE plus LAB (1 billion CFU/2 g) once daily oral 14 days; AUC 0 to 24 h; mean ± SD, n = 5; read-out: AUC
ENDPOINT LABEL: AUC (ng·h/mL)

compound="CC(C)=CCC[C@](C)(O)[C@H]1CC[C@]2(C)[C@@H]1[C@H](O)C[C@@H]1[C@@]3(C)CC[C@H](O[C@@H]4O[C@H](CO)[C@@H](O)[C@H](O)[C@H]4O)C(C)(C)[C@@H]3CC[C@]12C [GRh2, ginsenoside Rh2]" test_value=57.1

====

Assay: Pharmacokinetic study of ginsenosides in healthy humans after repeated oral RGE with or without LAB
Type: in vivo, human
Details: male, in vivo; RGE + LAB group; human plasma, oral 14 days; mean ± SD, n = 5; read-out: Cmax
ENDPOINT LABEL: Cmax (ng/mL)

molecule="CC(C)=CCC[C@](C)(O)[C@H]1CC[C@]2(C)[C@@H]1[C@H](O)C[C@@H]1[C@@]3(C)CC[C@H](O[C@@H]4O[C@H](CO)[C@@H](O)[C@H](O)[C@H]4O)C(C)(C)[C@@H]3CC[C@]12C [GRh2, ginsenoside Rh2]" result_unit=ng/mL test_value=13.9

====

Target: P-gp (Homo sapiens)
Construct: host or cells: LLC-PK1-P-gp cells (passage no. 25–28)
Assay: Transport of ginsenosides in P-gp-overexpressing LLC-PK1-P-gp cells
Type: in vitro ADME
Conditions: pig, LLC-PK1
ENDPOINT LABEL: Papp A→B at 20 μM

compound="CC(C)=CCCC(C)(OC1OC(CO)C(O)C(O)C1O)C1CCC2(C)C1C(O)CC1C3(C)CCC(O)C(C)(C)C3CCC12C (centres unmarked)" test_value="0.14 ×10⁻⁶ cm/s"
compound="CC(C)=CCCC(C)(O)C1CCC2(C)C1C(O)CC1C3(C)CCC(O)C(C)(C)C3C(O)CC12C (centres unmarked) [PPT, 20(s)-protopanaxatriol]" test_value="3.73 ×10⁻⁶ cm/s"

====

Test: Pharmacokinetic study of ginsenosides in healthy humans after repeated oral RGE with or without LAB
Format: in vivo, human
Conditions: male, human, in vivo, po, Cmax
ENDPOINT LABEL: Cmax (ng/mL)

compound="CC(C)=CCCC(C)(O)C1CCC2(C)C1C(O)CC1C3(C)CCC(O)C(C)(C)C3CCC12C (centres unmarked) [PPD, 20(s)-protopanaxadiol]" test_value=7.6
compound="CC(C)=CCCC(C)(O)C1CCC2(C)C1C(O)CC1C3(C)CCC(O)C(C)(C)C3C(O)CC12C (centres unmarked) [PPT, 20(s)-protopanaxatriol]" test_value=9.5

====

Molecular target: P-gp (Homo sapiens, UniProt P08183)
Construct: host or cells: LLC-PK1-P-gp cells (passage no. 25–28)
Sequence (P08183 whole entry): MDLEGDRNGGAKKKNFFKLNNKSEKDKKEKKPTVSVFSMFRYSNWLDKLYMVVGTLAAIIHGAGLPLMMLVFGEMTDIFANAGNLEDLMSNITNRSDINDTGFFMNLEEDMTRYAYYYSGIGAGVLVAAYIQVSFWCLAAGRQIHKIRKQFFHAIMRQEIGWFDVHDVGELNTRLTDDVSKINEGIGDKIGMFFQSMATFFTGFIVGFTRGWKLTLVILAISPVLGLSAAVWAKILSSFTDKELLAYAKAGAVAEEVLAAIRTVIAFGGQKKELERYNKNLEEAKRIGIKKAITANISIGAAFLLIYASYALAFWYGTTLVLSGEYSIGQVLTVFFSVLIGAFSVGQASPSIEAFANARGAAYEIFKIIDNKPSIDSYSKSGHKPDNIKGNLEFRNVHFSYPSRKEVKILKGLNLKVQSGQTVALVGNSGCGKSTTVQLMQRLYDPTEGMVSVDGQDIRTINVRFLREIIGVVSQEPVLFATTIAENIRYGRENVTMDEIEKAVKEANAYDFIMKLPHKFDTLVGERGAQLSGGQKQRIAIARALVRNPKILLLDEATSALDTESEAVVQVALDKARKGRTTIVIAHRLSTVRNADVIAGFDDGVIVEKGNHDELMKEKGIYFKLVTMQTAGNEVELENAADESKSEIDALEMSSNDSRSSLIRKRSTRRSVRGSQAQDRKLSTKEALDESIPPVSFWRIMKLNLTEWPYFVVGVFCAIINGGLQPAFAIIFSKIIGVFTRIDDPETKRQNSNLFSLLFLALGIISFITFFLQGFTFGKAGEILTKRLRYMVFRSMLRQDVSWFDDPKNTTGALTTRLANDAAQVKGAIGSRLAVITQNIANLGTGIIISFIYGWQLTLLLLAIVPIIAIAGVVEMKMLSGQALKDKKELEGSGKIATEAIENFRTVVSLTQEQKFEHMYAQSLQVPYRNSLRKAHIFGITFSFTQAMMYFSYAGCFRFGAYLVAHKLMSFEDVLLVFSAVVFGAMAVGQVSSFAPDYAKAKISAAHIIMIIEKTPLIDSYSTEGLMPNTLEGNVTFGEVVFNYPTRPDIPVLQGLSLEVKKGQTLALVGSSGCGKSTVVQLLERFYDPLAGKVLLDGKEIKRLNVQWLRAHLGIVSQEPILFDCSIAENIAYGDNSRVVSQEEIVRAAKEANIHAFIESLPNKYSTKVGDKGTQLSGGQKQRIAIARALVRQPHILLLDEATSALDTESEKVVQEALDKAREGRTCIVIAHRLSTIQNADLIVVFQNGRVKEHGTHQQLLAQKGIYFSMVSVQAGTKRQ
Assay: Transport of ginsenosides in P-gp-overexpressing LLC-PK1-P-gp cells
Assay type: in vitro ADME
Settings: pig; LLC-PK1-P-gp cells, 20 μM; mean ± SD, n = 3; read-out: B to A permeability
ENDPOINT LABEL: Papp B→A at 20 μM

compound="CC(C)=CCCC(C)(O)C1CCC2(C)C1C(O)CC1C3(C)CCC(O)C(C)(C)C3C(OC3OC(CO)C(O)C(O)C3O)CC12C (stereo not shown) [GRh1]" test_value="0.18 ×10⁻⁶ cm/s"
compound="CC(C)=CCCC(C)(O)C1CCC2(C)C1C(O)CC1C3(C)CCC(O)C(C)(C)C3CCC12C (stereo not shown) [PPD, 20(s)-protopanaxadiol]" test_value="0.42 ×10⁻⁶ cm/s"
compound="CC(C)=CCCC(C)(OC1OC(CO)C(O)C(O)C1O)C1CCC2(C)C1C(O)CC1C3(C)CCC(O)C(C)(C)C3C(OC3OC(CO)C(O)C(O)C3O)CC12C (stereo not shown) [GRg1]" test_value="0.1 ×10⁻⁶ cm/s"
compound="CC(C)=CCC[C@](C)(O)[C@H]1CC[C@]2(C)[C@@H]1[C@H](O)C[C@@H]1[C@@]3(C)CC[C@H](O[C@@H]4O[C@H](CO)[C@@H](O)[C@H](O)[C@H]4O)C(C)(C)[C@@H]3CC[C@]12C [GRh2, ginsenoside Rh2]" test_value="1.39 ×10⁻⁶ cm/s"
